System: 186277-243-T-J2-PDC complex spheroid growth, % test/control
Assay: Anticancer human tumor 186277-243-T-J2-PDC patient-derived colon adenocarcinoma cell line growth inhibition [Asc]; active = viability on the fitted dose curve at most 10% of control; inactive = the rest
Conditions: second compound 10 µM; first compound 0.1 µM
Outcomes: active, inactive

| compound | group-label |
| --- | --- |
| Cn1ncnc1[C@H]1c2n[nH]c(=O)c3cc(F)cc(c23)N[C@@H]1c1ccc(F)cc1 + Cc1c(S(C)(=O)=O)c(-c2cc(F)cc(N3CCN(c4ccc(NS(=O)(=O)c5ccc(NC(CCN6CCC(C(=O)OCCCP(=O)(O)O)CC6)CSc6ccccc6)c(S(=O)(=O)C(F)(F)F)c5)cc4)CC3)c2)c(-c2ccc(Cl)cc2)n1C(C)C | inactive |
| O=C(c1cc(Cc2n[nH]c(=O)c3ccccc23)ccc1F)N1CCN(C(=O)C2CC2)CC1 + Cc1c(S(C)(=O)=O)c(-c2cc(F)cc(N3CCN(c4ccc(NS(=O)(=O)c5ccc(NC(CCN6CCC(C(=O)OCCCP(=O)(O)O)CC6)CSc6ccccc6)c(S(=O)(=O)C(F)(F)F)c5)cc4)CC3)c2)c(-c2ccc(Cl)cc2)n1C(C)C | inactive |
| C=CC(=O)N1CCN(c2nc(=O)n(-c3c(C)ccnc3C(C)C)c3nc(-c4c(O)cccc4F)c(F)cc23)C(C)C1 (stereo unspecified) + Cc1c(S(C)(=O)=O)c(-c2cc(F)cc(N3CCN(c4ccc(NS(=O)(=O)c5ccc(NC(CCN6CCC(C(=O)OCCCP(=O)(O)O)CC6)CSc6ccccc6)c(S(=O)(=O)C(F)(F)F)c5)cc4)CC3)c2)c(-c2ccc(Cl)cc2)n1C(C)C | inactive |
| O=C(c1ccc(F)c(F)c1Nc1ccc(I)cc1F)N1CC(O)([C@@H]2CCCCN2)C1 + Cc1c(S(C)(=O)=O)c(-c2cc(F)cc(N3CCN(c4ccc(NS(=O)(=O)c5ccc(NC(CCN6CCC(C(=O)OCCCP(=O)(O)O)CC6)CSc6ccccc6)c(S(=O)(=O)C(F)(F)F)c5)cc4)CC3)c2)c(-c2ccc(Cl)cc2)n1C(C)C | active |
| C=C(F)C(=O)N1CCN(c2nc(OCC3CCCN3C)nc3c2CCN(c2cccc4cccc(Cl)c24)C3)CC1CC#N (stereo unspecified) + Cc1c(S(C)(=O)=O)c(-c2cc(F)cc(N3CCN(c4ccc(NS(=O)(=O)c5ccc(NC(CCN6CCC(C(=O)OCCCP(=O)(O)O)CC6)CSc6ccccc6)c(S(=O)(=O)C(F)(F)F)c5)cc4)CC3)c2)c(-c2ccc(Cl)cc2)n1C(C)C | inactive |
| C#Cc1c(F)ccc2cc(O)cc(-c3ncc4c(N5CC6CCC(C5)N6)nc(OCC56CCCN5CC(F)C6)nc4c3F)c12 (stereo unspecified) + Cc1c(S(C)(=O)=O)c(-c2cc(F)cc(N3CCN(c4ccc(NS(=O)(=O)c5ccc(NC(CCN6CCC(C(=O)OCCCP(=O)(O)O)CC6)CSc6ccccc6)c(S(=O)(=O)C(F)(F)F)c5)cc4)CC3)c2)c(-c2ccc(Cl)cc2)n1C(C)C | inactive |

###

Test system: 186277-243-T-J2-PDC complex spheroid growth, % test/control
Test: Anticancer human tumor 186277-243-T-J2-PDC cell line growth inhibition [Asc];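 also: spheroids exposed to agents for 7 days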
Conditions: curve of first compound; second compound 0.1 µM
pIC50: −log10 of the molar value.

| compound | readout-qualifier | pIC50 |
| --- | --- | --- |
| C=C(F)C(=O)N1CCN(c2nc(OCC3CCCN3C)nc3c2CCN(c2cccc4cccc(Cl)c24)C3)CC1CC#N (stereo not drawn) + Cc1c(S(C)(=O)=O)c(-c2cc(F)cc(N3CCN(c4ccc(NS(=O)(=O)c5ccc(NC(CCN6CCC(C(=O)OCCCP(=O)(O)O)CC6)CSc6ccccc6)c(S(=O)(=O)C(F)(F)F)c5)cc4)CC3)c2)c(-c2ccc(Cl)cc2)n1C(C)C | = | 5.26 |
| CCN1C(C(=O)NC23CCC(C(=O)O)(CC2)CC3)C(c2cccc(Cl)c2F)C2(C(=O)Nc3cc(Cl)ccc32)C12CCCCC2 (stereo not drawn) + Cc1c(S(C)(=O)=O)c(-c2cc(F)cc(N3CCN(c4ccc(NS(=O)(=O)c5ccc(NC(CCN6CCC(C(=O)OCCCP(=O)(O)O)CC6)CSc6ccccc6)c(S(=O)(=O)C(F)(F)F)c5)cc4)CC3)c2)c(-c2ccc(Cl)cc2)n1C(C)C | = | 6.13 |
| C=CC(=O)N1CCN(c2nc(=O)n(-c3c(C)ccnc3C(C)C)c3nc(-c4c(O)cccc4F)c(F)cc23)C(C)C1 (stereo not drawn) + Cc1c(S(C)(=O)=O)c(-c2cc(F)cc(N3CCN(c4ccc(NS(=O)(=O)c5ccc(NC(CCN6CCC(C(=O)OCCCP(=O)(O)O)CC6)CSc6ccccc6)c(S(=O)(=O)C(F)(F)F)c5)cc4)CC3)c2)c(-c2ccc(Cl)cc2)n1C(C)C | < | 5.00 |

###

# pIC50 per entry
Test system: 186277-243-T-J2-PDC complex spheroid growth, % test/control
Assay: Anticancer human tumor 186277-243-T-J2-PDC cell line growth inhibition [Asc];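 also: spheroids exposed to agents for 7 days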
Settings: curve of first compound; second compound 0.0316 µM
pIC50: −log10 of the molar value.
observed-property: pIC50

| molecule | assay-system | readout-qualifier | test-value |
| --- | --- | --- | --- |
| Cc1nc(N2CCC3(CC2)COC(C)C3N)c(CO)nc1Sc1ccnc(N)c1Cl (configuration not stated) + CNC(C)C(=O)NC1CN(S(=O)(=O)c2cccc(S(=O)(=O)N3CCC4CCC(C(=O)NC(c5ccccc5)c5ccccc5)N4C(=O)C(NC(=O)C(C)NC)C3)c2)CCC2CCC(C(=O)NC(c3ccccc3)c3ccccc3)N2C1=O | 186277-243-T-J2-PDC complex spheroid growth, % test/control | < | 5.52 |
| NC(=O)C(=Cn1cnc(-c2cc(C(F)(F)F)cc(C(F)(F)F)c2)n1)c1cncnc1 + CNC(C)C(=O)NC1CN(S(=O)(=O)c2cccc(S(=O)(=O)N3CCC4CCC(C(=O)NC(c5ccccc5)c5ccccc5)N4C(=O)C(NC(=O)C(C)NC)C3)c2)CCC2CCC(C(=O)NC(c3ccccc3)c3ccccc3)N2C1=O | 186277-243-T-J2-PDC complex spheroid growth, % test/control | = | 6.69 |
| C=C(F)C(=O)N1CCN(c2nc(OCC3CCCN3C)nc3c2CCN(c2cccc4cccc(Cl)c24)C3)CC1CC#N (configuration not stated) + CNC(C)C(=O)NC1CN(S(=O)(=O)c2cccc(S(=O)(=O)N3CCC4CCC(C(=O)NC(c5ccccc5)c5ccccc5)N4C(=O)C(NC(=O)C(C)NC)C3)c2)CCC2CCC(C(=O)NC(c3ccccc3)c3ccccc3)N2C1=O | 186277-243-T-J2-PDC complex spheroid growth, % test/control | = | 5.14 |
| COc1c(OCCCN2CCOCC2)ccc2c3n(c(=NC(=O)c4cnc(N)nc4)nc12)CCN3 + CNC(C)C(=O)NC1CN(S(=O)(=O)c2cccc(S(=O)(=O)N3CCC4CCC(C(=O)NC(c5ccccc5)c5ccccc5)N4C(=O)C(NC(=O)C(C)NC)C3)c2)CCC2CCC(C(=O)NC(c3ccccc3)c3ccccc3)N2C1=O | 186277-243-T-J2-PDC complex spheroid growth, % test/control | = | 7.01 |
| C#Cc1c(F)ccc2cc(O)cc(-c3ncc4c(N5CC6CCC(C5)N6)nc(OCC56CCCN5CC(F)C6)nc4c3F)c12 (configuration not stated) + CNC(C)C(=O)NC1CN(S(=O)(=O)c2cccc(S(=O)(=O)N3CCC4CCC(C(=O)NC(c5ccccc5)c5ccccc5)N4C(=O)C(NC(=O)C(C)NC)C3)c2)CCC2CCC(C(=O)NC(c3ccccc3)c3ccccc3)N2C1=O | 186277-243-T-J2-PDC complex spheroid growth, % test/control | = | 6.25 |
| NC1CCC(NC2CC2c2ccccc2)CC1 (configuration not stated) + CNC(C)C(=O)NC1CN(S(=O)(=O)c2cccc(S(=O)(=O)N3CCC4CCC(C(=O)NC(c5ccccc5)c5ccccc5)N4C(=O)C(NC(=O)C(C)NC)C3)c2)CCC2CCC(C(=O)NC(c3ccccc3)c3ccccc3)N2C1=O | 186277-243-T-J2-PDC complex spheroid growth, % test/control | < | 7.00 |
| CCN1C(C(=O)NC23CCC(C(=O)O)(CC2)CC3)C(c2cccc(Cl)c2F)C2(C(=O)Nc3cc(Cl)ccc32)C12CCCCC2 (configuration not stated) + CNC(C)C(=O)NC1CN(S(=O)(=O)c2cccc(S(=O)(=O)N3CCC4CCC(C(=O)NC(c5ccccc5)c5ccccc5)N4C(=O)C(NC(=O)C(C)NC)C3)c2)CCC2CCC(C(=O)NC(c3ccccc3)c3ccccc3)N2C1=O | 186277-243-T-J2-PDC complex spheroid growth, % test/control | = | 5.57 |
| C=CC(=O)N1CCN(c2nc(=O)n(-c3c(C)ccnc3C(C)C)c3nc(-c4c(O)cccc4F)c(F)cc23)C(C)C1 (configuration not stated) + CNC(C)C(=O)NC1CN(S(=O)(=O)c2cccc(S(=O)(=O)N3CCC4CCC(C(=O)NC(c5ccccc5)c5ccccc5)N4C(=O)C(NC(=O)C(C)NC)C3)c2)CCC2CCC(C(=O)NC(c3ccccc3)c3ccccc3)N2C1=O | 186277-243-T-J2-PDC complex spheroid growth, % test/control | < | 5.00 |
| O=C(c1cc(Cc2n[nH]c(=O)c3ccccc23)ccc1F)N1CCN(C(=O)C2CC2)CC1 + CNC(C)C(=O)NC1CN(S(=O)(=O)c2cccc(S(=O)(=O)N3CCC4CCC(C(=O)NC(c5ccccc5)c5ccccc5)N4C(=O)C(NC(=O)C(C)NC)C3)c2)CCC2CCC(C(=O)NC(c3ccccc3)c3ccccc3)N2C1=O | 186277-243-T-J2-PDC complex spheroid growth, % test/control | < | 5.00 |
| Cn1ncnc1[C@H]1c2n[nH]c(=O)c3cc(F)cc(c23)N[C@@H]1c1ccc(F)cc1 + CNC(C)C(=O)NC1CN(S(=O)(=O)c2cccc(S(=O)(=O)N3CCC4CCC(C(=O)NC(c5ccccc5)c5ccccc5)N4C(=O)C(NC(=O)C(C)NC)C3)c2)CCC2CCC(C(=O)NC(c3ccccc3)c3ccccc3)N2C1=O | 186277-243-T-J2-PDC complex spheroid growth, % test/control | < | 7.00 |
| CCN1CCN(Cc2ccc(Nc3ncc(F)c(-c4cc(F)c5nc(C)n(C(C)C)c5c4)n3)nc2)CC1 + CNC(C)C(=O)NC1CN(S(=O)(=O)c2cccc(S(=O)(=O)N3CCC4CCC(C(=O)NC(c5ccccc5)c5ccccc5)N4C(=O)C(NC(=O)C(C)NC)C3)c2)CCC2CCC(C(=O)NC(c3ccccc3)c3ccccc3)N2C1=O | 186277-243-T-J2-PDC complex spheroid growth, % test/control | < | 6.00 |
| O=C(c1ccc(F)c(F)c1Nc1ccc(I)cc1F)N1CC(O)([C@@H]2CCCCN2)C1 + CNC(C)C(=O)NC1CN(S(=O)(=O)c2cccc(S(=O)(=O)N3CCC4CCC(C(=O)NC(c5ccccc5)c5ccccc5)N4C(=O)C(NC(=O)C(C)NC)C3)c2)CCC2CCC(C(=O)NC(c3ccccc3)c3ccccc3)N2C1=O | 186277-243-T-J2-PDC complex spheroid growth, % test/control | = | 6.75 |

Cited source: PubChem BioAssay AID1963426
